TEST NAME: yeast display, Sf9 membrane polyspecificity reagent, FACS + sequencing; frameworks hold sequencing errors
OBSERVED PROPERTY: polyreactivity (PSR sort gate)

Sample answers from the record:
ITEM SEQUENCE: QVQLVESGGGLVQAGGSLRLSCAASGSIFYSYAMGWYRQAPGKERELVAAISSGGRTKYADSVKGRFTISRDNAKNTVYLQMNSLKPEDTAVYYCAASDRYGGRDYWGQGTQVTVSS
polyreactivity (PSR sort gate): high polyreactivity
--
ITEM SEQUENCE: QFQHVESGGGLVQAGGSLRLSCAASGSTFGLYAMGWYRQAPGKERELVADITWSGGSTYYADSVKGRFTISRDNAKNTVYLQMNSLKPEDTAVYYCAARYPWVYYDFDYWGLGTQVTVSS
polyreactivity (PSR sort gate): low polyreactivity
--
ITEM SEQUENCE: QVQLVESGGGLVQAGGSLRLICAASGSTFSYYAMGWYRQAPGKEMELVAAITSGSSTNYADSVKGRFTISRDNAKNTVYLQMNSLKPEDTAVYYCAASPQPKTYRRRYYYWGQGTQVTVSS
polyreactivity (PSR sort gate): high polyreactivity
--
ITEM SEQUENCE: QVQLVESGGGLVQAGGSLRLTCAASGFIFPNNAMGWYRQAPGKESELVAAISYSGGSTNYADSVKARFTISRDNAKNTVYLQMNSLKPEDTAVYYCAKADPAYLWGLREYDYWGQGTQVTVSS
polyreactivity (PSR sort gate): low polyreactivity
--
ITEM SEQUENCE: QVQLVESGGGLVKAGGSLRLSCAASGLIFIAYDMGWYRQAPGKERELVAAISSSGGSTYYADSVKGRFTISRDNAKNTVYFQMNSLKPEDTAVYYCASDTTKLQGVEGDYWGQGTQGTVSS
polyreactivity (PSR sort gate): low polyreactivity

Could you share which polyreactivity (PSR sort gate) value was measured for QVQLVESGGGLVQAGGSLRLSCAASGRTFKLYAMGWYRQAPGKERELVAAITESGGSTYYAVSVKGRFTISRDNAKNTVYLQMNSLKPEDTAVYYCAAYASAGTRGGYDYWGQGTQVTVSS ?
low polyreactivity

Could you share which polyreactivity (PSR sort gate) value was measured for QVQLVESGGGLVQAGGSLRLSCAASGRIFASYVMGWYRQAPGKERELVAAISYGGSRTYYADSVKGRFTISRDNAKNTVYLQMNSLKPEDTAVYYCNARSKFYYHYWMDYWGQGTQVTVSS ?
high polyreactivity

Could you share which polyreactivity (PSR sort gate) value was measured for QVQLVESGGGLVQAGGSLRLSCAASGFTFRKYVMGWYRQAPGKERELVAGISRSGSRTYYADSVKGRFTISRDNAKNTVYLQMNSLKPEDTAVYYCAADAAHSEYDYWGQGTQVTVSS ?
high polyreactivity

Could you share which polyreactivity (PSR sort gate) value was measured for QVQLVESGGGLVQAGGSLRLSCAASGRTFPANTMGWYRPAPGKERELVAAISSRGGSTYYADSVKGRFTISRDNAKKTVYLQMNSLKPEDTAVYYCNAYLYFPRYDYWGQGTQVTVSS ?
high polyreactivity

Could you share which polyreactivity (PSR sort gate) value was measured for QVQLVESGGGLVQAGGSLRLSCAASGRIFRYYAMGCYRQAPGKERELVAAITRGGSTNYADSVKGRFTISRDNAKNTVYLQMNSLKPEDTAVYYCAAAYRGRYKYYYWGQGSQVTVSS ?
high polyreactivity

Could you share which polyreactivity (PSR sort gate) value was measured for QVQLVESGGGLVQAGGSLRLSCAASGSTFGYYGMGWYRQAPGKERELVAAISTGGRTNYADSVKGRFTISRDNAKNTVYLQMNSLKPEDTAVYYCAADFLSPAYRPSWYRFDYWGQGTQVTVSS ?
low polyreactivity

Could you share which polyreactivity (PSR sort gate) value was measured for QVQLVESGGGLVQAGGSLRLSCAASGSIFGPYAMGWYRQAPGKERELVATINRGVTTYYADSVKGRFTISRDNAKNTVYLQMNSLKPEDTAVYYCAARTYAKRPGYYWGQGTQVTVSS ?
high polyreactivity

Could you share which polyreactivity (PSR sort gate) value was measured for QVQLVESGGGLVQAGGSLRLSCAASGRTFTRYAMGWYRQSPGKERELVAAISTSGDSTYYADSVKGRFTISRDNAKNTVYLQMNSLKPVDTAVYYCNTYWTSEYDYWGQGTQVTVSW ?
low polyreactivity

Could you share which polyreactivity (PSR sort gate) value was measured for QVQLVESGGGLVQAGGSLRLSCAASGSTFIRYVMGWYRQAPGKERELVASITISVGSTYADSVKGRFTISRDNAKHTVYLQMNSLKPEDTAVYYCNARYVENTPYPYDYWGQGTQVTVSS ?
low polyreactivity

Could you share which polyreactivity (PSR sort gate) value was measured for QVQLVESGGGLVQAGGSLRLSCAASGIIIVYNVMGWYRQAPGKERELVAAITNGDSTNYADSVKGRFTISRDNAKNTVYLQMNSLKPEDTAVYYCNVEGGYPLKYDYWGQGTQVSVSS ?
low polyreactivity
